All values here come from paper PMC8389922.

# Assay summary: CD spectroscopy, secondary structure content (DichroWeb)
# Format: physicochemical
# Protocol conditions: CD in water, peptide 50 μM, 25 °C, DichroWeb
# Method: The secondary structures of the linear peptide 9 and its stapled analogues 12, 17, and 24–26 were explored by circular dichroism (CD). CD spectroscopy studies were performed in water, and SDS or DPC micelles (20 mM) were used as mimics of the bacterial or mammalian membranes, respectively.[60] […] All spectra were measured in the 260–190 nm spectral range, 1 nm bandwidth, 4 accumulations, and 100 nm/min scanning speed.[60] […]
Bridge positions count the residues as written; N and C are the ends. Square brackets hold non-standard residues; d marks the D form. Peptide text beside a SMILES is read from it.
Quantity kind: random (%)
Numbers only, in %.

Query: What value of random has been recorded for this entry: CC[C@H](C)[C@H](NC(=O)[C@H](CCCNC(=N)N)NC(=O)[C@@H]1CCC(=O)NCCCC[C@H](NC(=O)[C@H](Cc2ccccc2)NC(=O)[C@H](Cc2c[nH]c3ccccc23)NC(=O)[C@@H]2CCCN2C(=O)[C@@H](NC(=O)[C@@H](N)Cc2ccccc2)C(C)C)C(=O)N[C@@H](CCCCN)C(=O)N[C@@H](Cc2ccccc2)C(=O)N[C@H](CC(C)C)C(=O)N1)C(=O)N[C@@H](CC(C)C)C(N)=O [compound 12] (H-FVPWFKKF[dL]ERIL-NH2; lactam 6-10)
Reply: 55

* * *

# Test system: A. baumannii ATCC 19606
# Assay type: cell-based, Acinetobacter baumannii
Bridge positions count the residues as written; N and C are the ends. Square brackets hold non-standard residues; d marks the D form. Triazole bridges read from a SMILES are 1,4-linked. Peptide text beside a SMILES is read from it. Lys(N3) = [N-]=[N+]=NCCCC[C@H](N)C(=O)O; dPra = C#CC[C@@H](N)C(=O)O; Pra = C#CC[C@H](N)C(=O)O
Quantity kind: MIC A. baumannii ATCC 19606 (µM)
One number for each entry, in µM.

Solved entries (count: 4):
{"columns": ["Molecule", "Quantity kind", "Output unit", "Observed result"],
 "data": [
  ["CC[C@H](C)[C@H](NC(=O)[C@H](CCCNC(=N)N)NC(=O)[C@@H]1CSSC[C@H](NC(=O)[C@H](Cc2ccccc2)NC(=O)[C@H](Cc2c[nH]c3ccccc23)NC(=O)[C@@H]2CCCN2C(=O)[C@@H](NC(=O)[C@@H](N)Cc2ccccc2)C(C)C)C(=O)N[C@@H](CCCCN)C(=O)N[C@@H](Cc2ccccc2)C(=O)N[C@H](CC(C)C)C(=O)N1)C(=O)N[C@@H](CC(C)C)C(N)=O [compound 26] (H-FVPWFCKF[dL]CRIL-NH2; disulfide 6-10)", "MIC A. baumannii ATCC 19606", "µM", 25],
  ["CC[C@H](C)[C@H](NC(=O)[C@H](CCCNC(=N)N)NC(=O)[C@@H]1CCCCn2cc(nn2)C[C@H](NC(=O)[C@H](Cc2ccccc2)NC(=O)[C@H](Cc2c[nH]c3ccccc23)NC(=O)[C@@H]2CCCN2C(=O)[C@@H](NC(=O)[C@@H](N)Cc2ccccc2)C(C)C)C(=O)N[C@@H](CCCCN)C(=O)N[C@@H](Cc2ccccc2)C(=O)NC(CC(C)C)C(=O)N1)C(=O)N[C@@H](CC(C)C)C(N)=O (stereo in doubt)", "MIC A. baumannii ATCC 19606", "µM", 25],
  ["CC[C@H](C)[C@H](NC(=O)[C@H](CCCNC(=N)N)NC(=O)[C@@H]1CCC(=O)NCCCC[C@H](NC(=O)[C@H](Cc2ccccc2)NC(=O)[C@H](Cc2c[nH]c3ccccc23)NC(=O)[C@@H]2CCCN2C(=O)[C@@H](NC(=O)[C@@H](N)Cc2ccccc2)C(C)C)C(=O)N[C@@H](CCCCN)C(=O)N[C@@H](Cc2ccccc2)C(=O)N[C@H](CC(C)C)C(=O)N1)C(=O)N[C@@H](CC(C)C)C(N)=O [compound 12] (H-FVPWFKKF[dL]ERIL-NH2; lactam 6-10)", "MIC A. baumannii ATCC 19606", "µM", 3.12],
  ["CC(C)C[C@H](NC(=O)[C@@H]1CCCCn2cc(nn2)C[C@H](NC(=O)[C@H](CCCCN)NC(=O)[C@H](CO)NC(=O)[C@H](Cc2ccccc2)NC(=O)[C@H](Cc2c[nH]c3ccccc23)NC(=O)[C@@H]2CCCN2C(=O)[C@@H](NC(=O)[C@@H](N)Cc2ccccc2)C(C)C)C(=O)N[C@H](CC(C)C)C(=O)NCC(=O)N[C@@H](CCCNC(=N)N)C(=O)N1)C(N)=O [compound 16] (H-FVPWFSK[Pra][dL]GR[Lys(N3)]L-NH2; triazole 8-12)", "MIC A. baumannii ATCC 19606", "µM", 25]
]}

Now look at this one.
Query: Entry CC[C@H](C)[C@@H]1NC(=O)[C@H](CCCNC(=N)N)NC(=O)CNC(=O)[C@H](NC(=O)[C@H](Cc2ccccc2)NC(=O)[C@H](CCCCN)NC(=O)[C@H](CO)NC(=O)[C@H](Cc2ccccc2)NC(=O)[C@H](Cc2c[nH]c3ccccc23)NC(=O)[C@@H]2CCCN2C(=O)[C@@H](NC(=O)[C@@H](N)Cc2ccccc2)C(C)C)Cc2cn(nn2)CCCC[C@@H](C(N)=O)NC1=O [compound 15] (H-FVPWFSKF[dPra]GRI[Lys(N3)]-NH2; triazole 9-13) : reported MIC A. baumannii ATCC 19606 = ?
Reply: 100

* * *

# Assay summary: CD spectroscopy, secondary structure content (DichroWeb)
# Format: physicochemical
# Protocol conditions: CD in SDS micelles (20 mM), peptide 50 μM, 25 °C, DichroWeb
# Method: The secondary structures of the linear peptide 9 and its stapled analogues 12, 17, and 24–26 were explored by circular dichroism (CD). CD spectroscopy studies were performed in water, and SDS or DPC micelles (20 mM) were used as mimics of the bacterial or mammalian membranes, respectively.[60] […] All spectra were measured in the 260–190 nm spectral range, 1 nm bandwidth, 4 accumulations, and 100 nm/min scanning speed.[60] […]
Bridge positions count the residues as written; N and C are the ends. Square brackets hold non-standard residues; d marks the D form. Peptide text beside a SMILES is read from it.
Quantity kind: helix-1 (regular α-helix) (%)
Numbers only, in %.

Query: Consider the molecule shown here: CC[C@H](C)[C@H](NC(=O)[C@H](CCCNC(=N)N)NC(=O)[C@@H]1CCCCNC(=O)CC[C@H](NC(=O)[C@H](Cc2ccccc2)NC(=O)[C@H](Cc2c[nH]c3ccccc23)NC(=O)[C@@H]2CCCN2C(=O)[C@@H](NC(=O)[C@@H](N)Cc2ccccc2)C(C)C)C(=O)N[C@@H](CCCCN)C(=O)N[C@@H](Cc2ccccc2)C(=O)N[C@H](CC(C)C)C(=O)N1)C(=O)N[C@@H](CC(C)C)C(N)=O [compound 24] (H-FVPWFEKF[dL]KRIL-NH2; lactam 6-10) What is its recorded helix-1 (regular α-helix)?
Reply: 59

* * *

# Assay summary: CD spectroscopy, secondary structure content (DichroWeb)
# Type: physicochemical
# Protocol conditions: CD in DPC micelles (20 mM), peptide 50 μM, 25 °C, DichroWeb
Bridge positions count the residues as written; N and C are the ends. Square brackets hold non-standard residues; d marks the D form. Peptide text beside a SMILES is read from it.
Quantity kind: helix-1 (regular α-helix) (%)
Give bare numbers, in %.

Query: Data request, read-out helix-1 (regular α-helix), for CC[C@H](C)[C@H](NC(=O)[C@H](CCCNC(=N)N)NC(=O)[C@@H]1CCCCNC(=O)CC[C@H](NC(=O)[C@H](Cc2ccccc2)NC(=O)[C@H](Cc2c[nH]c3ccccc23)NC(=O)[C@@H]2CCCN2C(=O)[C@@H](NC(=O)[C@@H](N)Cc2ccccc2)C(C)C)C(=O)N[C@@H](CCCCN)C(=O)N[C@@H](Cc2ccccc2)C(=O)N[C@H](CC(C)C)C(=O)N1)C(=O)N[C@@H](CC(C)C)C(N)=O [compound 24] (H-FVPWFEKF[dL]KRIL-NH2; lactam 6-10)
Reply: 69

* * *

# Tested on: S. aureus ATCC 25923
# Type: cell-based, Staphylococcus aureus
# Experimental: The antimicrobial activity of peptides 9–26 was assessed against a range of reference bacterial strains such as S. aureus ATCC 25923, Staphylococcus epidermidis ATCC 12228, Bacillus megaterium Bm11, E. coli ATCC 25922, P. aeruginosa ATCC 27853, and A. baumannii ATCC 19606 by the broth microdilution assay to determine the minimal growth inhibitory concentration (MIC, Table 1).[59] […]
Bridge positions count the residues as written; N and C are the ends. Square brackets hold non-standard residues; d marks the D form. Triazole bridges read from a SMILES are 1,4-linked. Peptide text beside a SMILES is read from it. Lys(N3) = [N-]=[N+]=NCCCC[C@H](N)C(=O)O; dPra = C#CC[C@@H](N)C(=O)O; Pra = C#CC[C@H](N)C(=O)O
Exercise: state measured MIC S. aureus ATCC 25923 for each of the compounds provided.

For every record below, what is its MIC S. aureus ATCC 25923?
1. CC[C@H](C)[C@@H]1NC(=O)[C@H](CCCNC(=N)N)NC(=O)CNC(=O)[C@H](NC(=O)[C@H](Cc2ccccc2)NC(=O)[C@H](CCCCN)NC(=O)[C@H](CO)NC(=O)[C@H](Cc2ccccc2)NC(=O)[C@H](Cc2c[nH]c3ccccc23)NC(=O)[C@@H]2CCCN2C(=O)[C@@H](NC(=O)[C@@H](N)Cc2ccccc2)C(C)C)CCCCNC(=O)CC[C@@H](C(N)=O)NC1=O
2. CC[C@H](C)[C@@H]1NC(=O)[C@H](CCCNC(=N)N)NC(=O)CNC(=O)[C@@H](CC(C)C)NC(=O)[C@H](Cc2ccccc2)NC(=O)[C@H](CCCCN)NC(=O)[C@@H](NC(=O)[C@H](Cc2ccccc2)NC(=O)[C@H](Cc2c[nH]c3ccccc23)NC(=O)[C@@H]2CCCN2C(=O)[C@@H](NC(=O)[C@@H](N)Cc2ccccc2)C(C)C)CCCCNC(=O)CC[C@@H](C(N)=O)NC1=O [compound 20] (H-FVPWFKKF[dL]GRIE-NH2; lactam 6-13)
3. CC(C)C[C@H](NC(=O)[C@@H]1CCC(=O)NCCCC[C@H](NC(=O)[C@H](CCCCN)NC(=O)[C@H](CO)NC(=O)[C@H](Cc2ccccc2)NC(=O)[C@H](Cc2c[nH]c3ccccc23)NC(=O)[C@@H]2CCCN2C(=O)[C@@H](NC(=O)[C@@H](N)Cc2ccccc2)C(C)C)C(=O)N[C@H](CC(C)C)C(=O)NCC(=O)N[C@@H](CCCNC(=N)N)C(=O)N1)C(N)=O [compound 11] (H-FVPWFSKK[dL]GREL-NH2; lactam 8-12)
4. CC(C)C[C@H](NC(=O)[C@@H]1CCCCn2cc(nn2)C[C@H](NC(=O)[C@H](CCCCN)NC(=O)[C@H](CO)NC(=O)[C@H](Cc2ccccc2)NC(=O)[C@H](Cc2c[nH]c3ccccc23)NC(=O)[C@@H]2CCCN2C(=O)[C@@H](NC(=O)[C@@H](N)Cc2ccccc2)C(C)C)C(=O)N[C@H](CC(C)C)C(=O)NCC(=O)N[C@@H](CCCNC(=N)N)C(=O)N1)C(N)=O [compound 16] (H-FVPWFSK[Pra][dL]GR[Lys(N3)]L-NH2; triazole 8-12)

Reply:
[">100 µM", ">100 µM", ">100 µM", ">100 µM"]

Each compound below has a recorded value; state its MIC S. aureus ATCC 25923.
1. CC[C@H](C)[C@H](NC(=O)[C@H](CCCNC(=N)N)NC(=O)[C@]1(C)CCCC=CCCC[C@](C)(NC(=O)[C@H](Cc2ccccc2)NC(=O)[C@H](Cc2c[nH]c3ccccc23)NC(=O)[C@@H]2CCCN2C(=O)[C@@H](NC(=O)[C@@H](N)Cc2ccccc2)C(C)C)C(=O)N[C@@H](CCCCN)C(=O)N[C@@H](Cc2ccccc2)C(=O)N[C@H](CC(C)C)C(=O)N1)C(=O)N[C@@H](CC(C)C)C(N)=O
2. CC[C@H](C)[C@@H]1NC(=O)[C@H](CCCNC(=N)N)NC(=O)CNC(=O)[C@H](NC(=O)[C@H](Cc2ccccc2)NC(=O)[C@H](CCCCN)NC(=O)[C@H](CO)NC(=O)[C@H](Cc2ccccc2)NC(=O)[C@H](Cc2c[nH]c3ccccc23)NC(=O)[C@@H]2CCCN2C(=O)[C@@H](NC(=O)[C@@H](N)Cc2ccccc2)C(C)C)Cc2cn(nn2)CCCC[C@@H](C(N)=O)NC1=O [compound 15] (H-FVPWFSKF[dPra]GRI[Lys(N3)]-NH2; triazole 9-13)
3. CC[C@H](C)[C@H](NC(=O)[C@H](CCCNC(=N)N)NC(=O)[C@@H]1CCCCn2cc(nn2)C[C@H](NC(=O)[C@H](Cc2ccccc2)NC(=O)[C@H](Cc2c[nH]c3ccccc23)NC(=O)[C@@H]2CCCN2C(=O)[C@@H](NC(=O)[C@@H](N)Cc2ccccc2)C(C)C)C(=O)N[C@@H](CCCCN)C(=O)N[C@@H](Cc2ccccc2)C(=O)NC(CC(C)C)C(=O)N1)C(=O)N[C@@H](CC(C)C)C(N)=O (stereo in doubt)
4. CC[C@H](C)[C@H](NC(=O)[C@H](CCCNC(=N)N)NC(=O)CNC(=O)[C@@H](CC(C)C)NC(=O)[C@H](Cc1ccccc1)NC(=O)[C@H](CCCCN)NC(=O)[C@H](CO)NC(=O)[C@H](Cc1ccccc1)NC(=O)[C@H](Cc1c[nH]c2ccccc12)NC(=O)[C@@H]1CCCN1C(=O)[C@@H](NC(=O)[C@@H](N)Cc1ccccc1)C(C)C)C(=O)N[C@@H](CC(C)C)C(N)=O [compound 9, [Pro^3,DLeu^9]TL, reference compound] (H-FVPWFSKF[dL]GRIL-NH2)

Reply:
>100 µM
>100 µM
3.12 µM
6.25 µM

Query: Name the recorded MIC S. aureus ATCC 25923 for CC[C@H](C)[C@H](NC(=O)[C@H](CCCNC(=N)N)NC(=O)CNC(=O)[C@H]1CCC(=O)NCCCC[C@H](NC(=O)[C@H](Cc2c[nH]c3ccccc23)NC(=O)[C@@H]2CCCN2C(=O)[C@@H](NC(=O)[C@@H](N)Cc2ccccc2)C(C)C)C(=O)N[C@@H](CO)C(=O)N[C@@H](CCCCN)C(=O)N[C@@H](Cc2ccccc2)C(=O)N1)C(=O)N[C@@H](CC(C)C)C(N)=O [compound 13] (H-FVPWKSKF[dE]GRIL-NH2; lactam 5-9) .
Reply: >100 µM
